tested on: P94_40; assay: qHTS profiling for inhibitors of Plasmodium falciparum proliferation (AID 504749); note: nearly all actives have a fitted effect of over 60% in size; conditions: P. falciparum in erythrocytes, SYBR Green DNA, 72 h; series mostly up to 12.8 µM
Inconclusive results are not listed. Calls of active or inactive are those of the source. Calls come from the whole dose curve; as a rule, active = well fitted inhibition curve with a large enough effect; inconclusive = small, poorly fitted or top-dose-only effect; inactive = flat fitted curve, though single readings scatter.
Valid outcomes are listed here; reply with one: active, inactive

{"columns": ["compound", "class-name"],
 "data": [
  ["CC(C)(C)NC(=O)[C@@H]1CC[C@@H]2[C@@H]3CC[C@@H]4NC(=O)C=C[C@@]4(C)[C@H]3CC[C@]21C", "inactive"],
  ["CC(=C(CCOP(=O)(O)O)SC(=O)c1ccccc1)N(C=O)Cc1cnc(C)nc1N", "inactive"],
  ["C[C@H](N[C@@H](C)COc1ccccc1)[C@H](O)c1ccc(O)cc1", "inactive"],
  ["COCC(=O)Nc1c(I)c(C(=O)NC[C@@H](O)CO)c(I)c(C(=O)N(C)C[C@@H](O)CO)c1I", "inactive"]
]}

Entry COc1ccc(CC(N)C(=O)NC2C(CO)OC(n3cnc4c(N(C)C)ncnc43)C2O)cc1 (stereo unspecified) : call = ?
active

Entry CCC(C)C(=O)OC1CC(O)C=C2C=CC(C)C(CCC(O)CC(O)CC(=O)O)C21 (stereo unspecified) : call = ?
inactive

###

biological target: Rap guanine nucleotide exchange factor 3 (Homo sapiens) (UniProt O95398); experiment: Confirmatory qHTS for agonist of cAMP-regulated guanine nucleotide exchange factor 3 (EPAC1) (AID 1645881); settings: EPAC1 Rap1B BODIPY-GDP exchange fluorescence; series mostly up to 154 µM;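 note: EPAC1 catalysed release of BODIPY-GDP from Rap1B seen as fluorescence loss; nearly all actives have a fitted effect of over 75% in size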
Sequence (O95398 whole entry, looked up): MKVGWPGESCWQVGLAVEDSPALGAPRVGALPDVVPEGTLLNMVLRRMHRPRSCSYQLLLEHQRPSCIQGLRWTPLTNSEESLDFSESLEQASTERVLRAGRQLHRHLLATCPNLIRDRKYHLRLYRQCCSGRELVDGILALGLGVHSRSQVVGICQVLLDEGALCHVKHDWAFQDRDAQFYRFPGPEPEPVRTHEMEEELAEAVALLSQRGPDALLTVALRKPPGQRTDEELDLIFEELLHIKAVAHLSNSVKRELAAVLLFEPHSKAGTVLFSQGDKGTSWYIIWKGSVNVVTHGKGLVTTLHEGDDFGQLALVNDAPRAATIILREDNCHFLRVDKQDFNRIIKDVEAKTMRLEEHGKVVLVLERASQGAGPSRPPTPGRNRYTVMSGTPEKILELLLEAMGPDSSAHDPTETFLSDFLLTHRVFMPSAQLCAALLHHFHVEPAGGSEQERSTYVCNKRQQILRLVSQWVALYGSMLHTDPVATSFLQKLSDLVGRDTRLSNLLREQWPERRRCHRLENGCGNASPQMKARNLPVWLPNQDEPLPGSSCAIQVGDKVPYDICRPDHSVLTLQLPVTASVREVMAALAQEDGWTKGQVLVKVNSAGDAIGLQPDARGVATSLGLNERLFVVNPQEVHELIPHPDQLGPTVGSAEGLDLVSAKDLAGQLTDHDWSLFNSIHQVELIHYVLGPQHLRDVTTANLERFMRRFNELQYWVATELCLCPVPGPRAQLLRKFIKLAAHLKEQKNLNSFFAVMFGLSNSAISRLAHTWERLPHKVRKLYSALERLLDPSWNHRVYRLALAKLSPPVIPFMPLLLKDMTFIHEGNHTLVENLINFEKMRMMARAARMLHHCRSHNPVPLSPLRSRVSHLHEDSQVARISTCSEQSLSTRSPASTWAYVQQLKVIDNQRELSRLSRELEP
Inconclusive results are not listed. The source made the active and inactive calls. Calls come from the whole dose curve; as a rule, active = well fitted activation curve with a large enough effect; inconclusive = small, poorly fitted or top-dose-only effect; inactive = no such curve, though single readings can be large or run the other way.
Valid outcomes are listed here; reply with one: yes (active), no (inactive)

{"columns": ["compound", "measured-target", "class-name"],
 "data": [
  ["c1ccc(CN(Cc2ccccc2)c2c3c(nc4ncnn24)CCC3)cc1", "Rap guanine nucleotide exchange factor 3 (Homo sapiens) (UniProt O95398)", "no"],
  ["Cc1ccccc1CNC(=O)CCC(=O)N1CCSc2ccccc21", "Rap guanine nucleotide exchange factor 3 (Homo sapiens) (UniProt O95398)", "no"],
  ["COC(=O)c1sc(-c2ccc(C(C)(C)C)cc2)cc1NC(=O)c1ccccc1C(=O)O", "Rap guanine nucleotide exchange factor 3 (Homo sapiens) (UniProt O95398)", "no"],
  ["CCCCOc1ccccc1NC(=O)Cn1c(-c2cncs2)nc2ccccc21", "Rap guanine nucleotide exchange factor 3 (Homo sapiens) (UniProt O95398)", "no"],
  ["Cc1ccc(CNC(=O)COc2ccccc2-c2ccccc2)cc1", "Rap guanine nucleotide exchange factor 3 (Homo sapiens) (UniProt O95398)", "no"]
]}

Entry O=C(Nc1ccccc1N1CCOCC1)c1cccc2c(Br)cccc12 : call = ?
no

Entry O=C(COc1ccccc1Br)NCCC1=CCCCC1 : call = ?
no

Entry COc1cc(NS(=O)(=O)c2ccc(NC(=O)/C(=C/c3ccccc3Cl)NC(=O)c3ccccc3)cc2)nc(OC)n1 : call = ?
no

Entry N#C/C(=C\c1cn(Cc2ccc(C#N)cc2)c2ccccc12)C(=O)NCc1cccs1 : call = ?
no

Entry O=C(C[n+]1cc(Br)cc2ccccc21)c1ccc(F)cc1 : call = ?
no

Entry O=C(Nc1cccc(Cl)c1)OC1CCCCc2cccnc21 (centres undefined) : call = ?
no

Entry Cc1ccc(O)c(N=Cc2cc(Cc3ccccc3)cc([N+](=O)[O-])c2O)c1 : call = ?
no

Entry Cc1ccc(NC(=O)C2CCN(S(=O)(=O)c3ccc4c(c3)OCCCO4)CC2)nc1 : call = ?
no

Entry CC1CN(C(=O)CCC(=O)NCc2ccccc2)c2ccccc2S1 (centres undefined) : call = ?
no

Entry CCc1ccccc1NC(=O)c1oc(=O)c2ccccc2c1-c1ccccc1 : call = ?
no

Cited source: PubChem BioAssay (NCATS)
